B1: Gamma-crystallin C, residues 4 to 79; numbered along this chain, P07315 (parent)
chain: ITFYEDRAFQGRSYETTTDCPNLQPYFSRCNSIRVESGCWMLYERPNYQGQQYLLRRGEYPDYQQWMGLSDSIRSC

Variants of: B1
Assay: abundance fitness (aPCA) (normalised: wild type 0, dead -1); higher = more abundant; growth selection in yeast, the domain comes from the species named
Settings: Homo sapiens
RESULT_TYPE: abundance fitness
Give the figure by itself; no unit, no explanation.

Measured abundance fitness, "E15K" : 0.165

Measured abundance fitness, "C30R" : -0.768

Measured abundance fitness, "T17F" : -0.152

Measured abundance fitness, "P21T" : 0.006

Measured abundance fitness, "Q51S" : -0.015

Measured abundance fitness, "F9L" : 0.12

Further cases:
Measured abundance fitness, "I73V" : 0.085

Measured abundance fitness, "Q65P" : 0.027
